Task for the reader: assign each of the following compounds its reported CC50 at 3 days.
# METHOD: MTT cytotoxicity assay on uninfected Vero cells
# Type: cell-based
# TEST_PARAMETERS: African green monkey, uninfected Vero cells (CCL-81), 3 days at 37 °C, read-out: CC50 (half-maximum cytotoxic concentration)

COMPOUND	VALUE_OBSERVED
O=[N+]([O-])c1ccc(C(Nc2nnc(-c3ccccc3)o2)P(=O)(O)O)cc1 (stereo not drawn)	~550 µM

Please look at the items below and tell me CC50 at 3 days for each one, in order.
1. O=P(O)(O)C(Nc1nnc(-c2ccccc2)o1)c1ccc(C(F)(F)F)cc1 (stereo not drawn)
2. O=P(O)(O)C(Nc1nnc(-c2ccccc2)o1)c1cc(F)c(F)c(F)c1 (stereo not drawn)
3. O=P(O)(O)C(Nc1nnc(-c2ccccc2)o1)c1cc(C(F)(F)F)cc(C(F)(F)F)c1 (stereo not drawn)
4. CCOP(=O)(OCC)C(Nc1nnc(-c2ccccc2)o1)c1ccc(F)cc1 (stereo not drawn)

Output:
["~550 µM", "~550 µM", "~550 µM", "~550 µM"]

Looking up CCOP(=O)(OCC)C(Nc1nnc(-c2ccccc2)o1)c1ccc([N+](=O)[O-])cc1 (stereo not drawn) , I found its CC50 at 3 days recorded as 1600 µM
